biological target: Cellular tumor antigen p53 (Homo sapiens); test: nuclear p53 accumulation, HPV+ cells – imaging, p53-positive nuclei imaging, 24 h, 48 h (AID 1508601); conditions: 24/48 h, measured here: p53 positive nuclei at 24 h, Library stock concentration: 278 uM, stronger effect = higher value
Among all 5,700 compounds or so, about 85 (1%) were called active. Shown is part of a subset that was picked to be rich in actives. Peptide text beside a SMILES is read from it. * marks the point of attachment. Cbz = O=C(OCc1ccccc1)*
REPORTED METRIC: p53-positive nuclei, normalised (%)
Numbers only here, please. The scale is %.

{"columns": ["MOLECULE", "p53-positive nuclei, normalised, %"],
 "data": [
  ["CC(C)CC(C=O)NC(=O)C(CC(C)C)NC(=O)C(CC(C)C)NC(=O)OCc1ccccc1 (stereo not drawn) (Cbz-Leu-Leu-Leu-aldehyde; configuration not given here)", -0.0262],
  ["Nc1ccccc1NC(=O)c1ccc(CNC(=O)OCc2cccnc2)cc1", -0.207],
  ["CC(C)(C)Nc1nc2cc(Cl)c(Cl)cc2nc1S(C)(=O)=O", -0.151],
  ["O=C(O)CCCCCCCCCCCNC(=O)NC12CC3CC(CC(C3)C1)C2", -0.135],
  ["CS(=O)(=O)N1CCN(Cc2cc3nc(-c4cccc5[nH]ncc45)nc(N4CCOCC4)c3s2)CC1", -0.0265],
  ["COc1ccc(CC(NC(=O)C(C)NC(=O)CN2CCOCC2)C(=O)NC(Cc2ccccc2)C(=O)[C@@]2(C)CO2)cc1 (some centres undefined)", 0.483]
]}

## Task Tell me the measured p53-positive nuclei, normalised of `C#CCOc1ccc2c(c1)c(-c1ccc(C(C)C)cc1)nc(=O)n2C(C)C` , please.
## Result -0.218

## Task Please answer likewise for `O=C1CC(c2ccc([N+](=O)[O-])cc2)=NN1c1ccccc1`
## Result 0.0349

###

target: Cellular tumor antigen p53 (Homo sapiens); assay: nuclear p53 accumulation, HPV+ cells – imaging, p53-positive nuclei imaging, 24 h, 48 h (AID 1508601); conditions: 24/48 h, Library stock concentration: 4.6 uM, stronger effect = higher value
Among all 5,700 compounds or so, about 85 (1%) were called active. The full list was thinned out, with actives kept by preference.
Entries and their p53-positive nuclei, normalised

## Task Report p53-positive nuclei, normalised for CN(C)CCC(CSc1ccccc1)Nc1ccc(S(=O)(=O)NC(=O)c2ccc(N3CCN(Cc4ccccc4-c4ccc(Cl)cc4)CC3)cc2)cc1[N+](=O)[O-] (configuration not stated) please.
## Result 0.0183% (inactive)

## Task Can you check `COc1ccc(N2C(=O)C(=Cc3ccc([N+](=O)[O-])s3)SC2=S)cc1` next?
## Result 0.192% (inactive)

## Task Do the same for `O=C(O)c1ccccc1SC1=NS(=O)(=O)c2ccccc21` please
## Result -0.0688% (inactive)

## Task // repeat for CC(=O)OC1C(=O)[C@]2(C)C(O)CC3OC[C@@]3(OC(C)=O)C2C(OC(=O)c2ccccc2)[C@]2(O)CC(OC(=O)C(O)C(NC(=O)c3ccccc3)c3ccccc3)C(C)=C1C2(C)C (some centres not stated) and report
## Result 11.3% (inactive)

###

Attribute: p53-positive nuclei, normalised
molecular target: Cellular tumor antigen p53 (Homo sapiens); assay: nuclear p53 accumulation, HPV+ cells – imaging, p53-positive nuclei imaging, 24 h, 48 h (AID 1508601); conditions: 24/48 h, measured here: p53 positive nuclei at 24 h, Library stock concentration: 123 uM, stronger effect = higher value
In all, about 5,700 compounds went through this assay and about 85 (1%) were called active. This is one part of a sample in which actives are shown more often than they occur.
Please reply with the bare figure in % and do not write the unit itself.

Here are 2 molecules together with their reported answers.
{"columns": ["MOLECULE", "RECORDED VALUE"],
 "data": [
  ["CC(=O)NC(CSC(=S)NSc1ccc(SNC(=S)SCC(NC(C)=O)C(=O)O)cc1)C(=O)O (configuration not stated)", -0.173],
  ["OC(c1cc(C(F)(F)F)nc2c(C(F)(F)F)cccc12)[C@H]1CCCCN1 (some centres not stated)", -0.134]
]}

## Task Looking for the measured p53-positive nuclei, normalised of `CN(NC(=O)CC(=O)NN(C)C(=S)c1ccccc1)C(=S)c1ccccc1` , can you help?
## Result 69.4

## Task What do you get for CC(=O)OC1C(=O)[C@]2(C)C(O)CC3OC[C@@]3(OC(C)=O)C2C(OC(=O)c2ccccc2)[C@]2(O)CC(OC(=O)C(O)C(NC(=O)c3ccccc3)c3ccccc3)C(C)=C1C2(C)C (some centres not stated) ?
## Result 0.31

## Task Next: `COc1ccc(N2C(=O)C(=Cc3ccc([N+](=O)[O-])s3)SC2=S)cc1`
## Result 5.3

## Task Same thing, different molecule: C=C1C(=O)OC(CCCCCCCC)C1C(=O)O (configuration not stated)
## Result -0.115

## Task Next: `O=C(O)c1ccccc1SC1=NS(=O)(=O)c2ccccc21`
## Result -0.148
